These data points were gathered from PubChem BioAssay AID624330.

molecular target: Rac GTPase-activating protein 1 (Homo sapiens); test: blockers of MgcRacGAP-driven Rac1 GTP hydrolysis – biochemical, ADP Hunter fluorescence, primary and confirmatory, confirmation (AID 624330); details: MgcRacGAP-stimulated Rac1 GTP hydrolysis, at 30 µM, hits give high values, GST-tagged Rac1 F28L mutant substrate;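 note: fluorescence reports GDP produced by GAP-driven GTP hydrolysis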
Screen size: about 340,000 compounds; about 2,100 (0.62%) were called active. A selection follows. Entries with a potency or affinity are not part of this list.

molecule | targetOrSystem | unitDescriptor | inhibition
CN(CC(=O)Nc1ccc(S(=O)(=O)N2CCCC2)cc1)Cc1cccc(Cl)c1Cl | Rac GTPase-activating protein 1 (Homo sapiens) | % | 4.27
Cc1ccsc1C=Nc1ccc(O)cc1 | Rac GTPase-activating protein 1 (Homo sapiens) | % | 18.4
CCOc1ccccc1N1CCN(Cc2ccc(OC)c(OC)c2OC)CC1 | Rac GTPase-activating protein 1 (Homo sapiens) | % | 13.8
COc1cc(/C=C(/C#N)c2nc3ccccc3c(=O)[nH]2)ccc1O | Rac GTPase-activating protein 1 (Homo sapiens) | % | 19.3
CCO[C@@H]1OC(C(=O)NC2CC2)=C[C@H](c2ccccc2)[C@H]1CCCO | Rac GTPase-activating protein 1 (Homo sapiens) | % | 2.47
COc1cccc(NC(=O)CN2C(=O)NC(C)(c3ccc(C)cc3)C2=O)c1 (centres undefined) | Rac GTPase-activating protein 1 (Homo sapiens) | % | 6.36
COc1cc(/C=C(\C#N)c2nc3ccccc3[nH]2)cc(Br)c1OCc1ccccc1 | Rac GTPase-activating protein 1 (Homo sapiens) | % | 6.48
N#Cc1c(-c2ccccc2)cc(C2CC2)nc1SCC(=O)O | Rac GTPase-activating protein 1 (Homo sapiens) | % | 12.8
O=C(Cn1ccccc1=O)Nc1ccc(Cl)c(S(=O)(=O)N2CCCCC2)c1 | Rac GTPase-activating protein 1 (Homo sapiens) | % | 1.69
CC1CCCCN1C(=O)c1ccc(CS(=O)(=O)Cc2ccccc2)cc1 (centres undefined) | Rac GTPase-activating protein 1 (Homo sapiens) | % | 8.5
Cc1ccccc1OCCCCCn1ccnc1 | Rac GTPase-activating protein 1 (Homo sapiens) | % | 2.87
CCOc1ccc(S(=O)(=O)Nc2ccc(C(=O)NCC(c3ccc(OC)cc3)N3CCOCC3)cc2)cc1 (centres undefined) | Rac GTPase-activating protein 1 (Homo sapiens) | % | 5.24
COc1ccc(/C=C(\C#N)C(=O)c2c(C)[nH]c3ccccc23)cc1OC | Rac GTPase-activating protein 1 (Homo sapiens) | % | 10.7
CCCOc1ccc(C2C(C(=O)c3ccc(C)o3)=C(O)C(=O)N2Cc2ccco2)cc1 (centres undefined) | Rac GTPase-activating protein 1 (Homo sapiens) | % | 9.74
Cn1c(SCC(=O)Nc2ccccc2Cl)nnc1C1CC1 | Rac GTPase-activating protein 1 (Homo sapiens) | % | 2.31
Cc1ccc(-c2nc(C=Nc3ccc(O)cc3)c(O)o2)cc1 | Rac GTPase-activating protein 1 (Homo sapiens) | % | 19
Fc1ccccc1OCCCCN1CCCCC1 | Rac GTPase-activating protein 1 (Homo sapiens) | % | 24.8
Cc1ccc2nc(/C(C#N)=C/c3ccccc3C(=O)O)[nH]c2c1 | Rac GTPase-activating protein 1 (Homo sapiens) | % | 16
FC(F)(F)c1cccc(N2CCN(Cc3ccoc3)CC2)c1 | Rac GTPase-activating protein 1 (Homo sapiens) | % | 9.97
O=C(CN1CCN(S(=O)(=O)c2ccc3ccccc3c2)CC1)N1CCc2ccccc2C1 | Rac GTPase-activating protein 1 (Homo sapiens) | % | 10.7
CC(C)c1nc(SCC(=O)Nc2ccc(N3CCOCC3)cc2)c2ccccc2n1 | Rac GTPase-activating protein 1 (Homo sapiens) | % | 9.39
Cc1ccc(SCCN2CCN(C)CC2)cc1 | Rac GTPase-activating protein 1 (Homo sapiens) | % | -7.97
Cc1ccc(S(=O)(=O)N(C)CC(=O)Nc2ncccc2C)cc1 | Rac GTPase-activating protein 1 (Homo sapiens) | % | -0.45
CCOP(=O)(OCC)c1ccc2c(c1)C(=O)c1ccccc1CC2 | Rac GTPase-activating protein 1 (Homo sapiens) | % | 9.38
CCn1c(CSc2nc3ccccc3s2)nnc1SCC(=O)c1ccc(Cl)cc1 | Rac GTPase-activating protein 1 (Homo sapiens) | % | -0.25
Fc1ccccc1OCCCCCN1CCCC1 | Rac GTPase-activating protein 1 (Homo sapiens) | % | 10.2
O=C(CN1CCN(S(=O)(=O)c2cc(C(F)(F)F)ccc2Cl)CC1)N1CCc2ccccc2C1 | Rac GTPase-activating protein 1 (Homo sapiens) | % | 9.9
O=C1c2ccccc2C(=O)c2[nH]c(=O)[nH]c21 | Rac GTPase-activating protein 1 (Homo sapiens) | % | 8.15
Cc1nc2ccccc2n1CC(=O)c1ccccc1 | Rac GTPase-activating protein 1 (Homo sapiens) | % | 15.2
Cc1ccc(S(=O)(=O)N2CCN(C(=O)COC(=O)CC(C)c3ccccc3)CC2)c(C)c1 (centres undefined) | Rac GTPase-activating protein 1 (Homo sapiens) | % | -1.45
COc1cc(OC)c(NC(=O)CCNS(=O)(=O)c2ccc3c(c2)CC(C)N3C(C)=O)cc1Cl (centres undefined) | Rac GTPase-activating protein 1 (Homo sapiens) | % | -10.2
N#Cc1c(-c2ccccc2)ccn(Cc2ccc(Cl)cc2)c1=O | Rac GTPase-activating protein 1 (Homo sapiens) | % | 11.4
Cc1nc2ccccc2c(-c2ccccc2)c1CC(=O)O | Rac GTPase-activating protein 1 (Homo sapiens) | % | 5.79
CN(C(=O)c1ccc(NC(=O)Cc2cccc(NC(=O)C3CCCN(C(=O)C4CCCC4)C3)c2)cc1)C1CCCC1 (centres undefined) | Rac GTPase-activating protein 1 (Homo sapiens) | % | 8.78
Cc1cc(N2C(=O)C3C4CCC(C4)C3C2=O)no1 (centres undefined) | Rac GTPase-activating protein 1 (Homo sapiens) | % | -3.98
CC(=O)c1ccc2ccccc2c1OC(=O)c1ccncc1 | Rac GTPase-activating protein 1 (Homo sapiens) | % | 6.45
COCCCNc1nc2nonc2nc1NCCSC | Rac GTPase-activating protein 1 (Homo sapiens) | % | -2.05
CCn1c(CSc2nc3ccccc3s2)nnc1SCC(=O)c1ccc(O)cc1O | Rac GTPase-activating protein 1 (Homo sapiens) | % | 6.52
CC(C)c1ccc(NC(=O)COC(=O)c2c[nH]c(=O)[nH]c2=O)cc1 | Rac GTPase-activating protein 1 (Homo sapiens) | % | 6.27
CCCCCCN1C[C@@H](n2cc(COC(=O)c3ccccc3)nn2)[C@H](O)C[C@@H]1c1ccc(Cl)cc1 | Rac GTPase-activating protein 1 (Homo sapiens) | % | 8.49
COc1cc(/C=C(\C#N)C(=O)c2c(C)[nH]c3ccccc23)cc(OC)c1OC | Rac GTPase-activating protein 1 (Homo sapiens) | % | 15.4
O=C(Nc1cccc(-c2ccccc2)c1)N1CCN(C(=O)Nc2cccc(-c3ccccc3)c2)CC1 | Rac GTPase-activating protein 1 (Homo sapiens) | % | 14.5
CN(c1ccc(C(=O)Nc2ccccc2C(F)(F)F)cc1)S(C)(=O)=O | Rac GTPase-activating protein 1 (Homo sapiens) | % | 5.77
CCc1ccc(NC(=O)C(=O)NCCOc2ccccc2Cl)cc1 | Rac GTPase-activating protein 1 (Homo sapiens) | % | -2.71

###

biological target: Rac GTPase-activating protein 1 (Homo sapiens) (UniProt Q9H0H5); test: blockers of MgcRacGAP-driven Rac1 GTP hydrolysis – biochemical, ADP Hunter fluorescence, primary and confirmatory, confirmation (AID 624330); details: MgcRacGAP-stimulated Rac1 GTP hydrolysis, at 30 µM, hits give high values, GST-tagged Rac1 F28L mutant substrate;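 note: fluorescence reports GDP produced by GAP-driven GTP hydrolysis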
Sequence (Q9H0H5 whole entry, looked up): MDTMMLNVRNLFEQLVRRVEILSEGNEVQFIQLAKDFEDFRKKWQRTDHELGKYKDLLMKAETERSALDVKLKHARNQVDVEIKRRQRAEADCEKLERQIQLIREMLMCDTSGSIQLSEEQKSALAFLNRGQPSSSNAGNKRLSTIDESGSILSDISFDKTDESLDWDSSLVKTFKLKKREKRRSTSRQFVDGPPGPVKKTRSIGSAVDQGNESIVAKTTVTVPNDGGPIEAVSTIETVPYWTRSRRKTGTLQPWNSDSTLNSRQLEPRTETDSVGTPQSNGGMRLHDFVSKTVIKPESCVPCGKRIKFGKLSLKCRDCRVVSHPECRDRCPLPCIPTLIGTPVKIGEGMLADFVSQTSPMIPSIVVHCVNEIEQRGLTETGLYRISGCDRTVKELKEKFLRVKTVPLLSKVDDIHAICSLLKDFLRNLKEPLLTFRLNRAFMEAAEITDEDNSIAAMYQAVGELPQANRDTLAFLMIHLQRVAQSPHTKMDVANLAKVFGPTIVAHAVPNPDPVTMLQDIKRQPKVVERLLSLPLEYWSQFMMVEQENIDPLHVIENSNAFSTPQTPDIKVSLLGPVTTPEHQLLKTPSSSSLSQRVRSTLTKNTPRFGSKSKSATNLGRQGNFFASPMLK
Screen size: about 340,000 compounds; about 2,100 (0.62%) were called active. Only a sample is shown. Entries with a potency or affinity are not part of this list.
measureName: inhibition (%)

molecule | observedValue
COCCCNC(=O)COc1ccc(S(=O)(=O)Nc2ccccc2)cc1 | 5.23
CN(CCO)c1ncnc2c1sc1nc(N3CCOCC3)c3c(c12)CCC3 | 13.9
CCN(CC)C(=O)C1=C(C)N(Cc2ccc(F)cc2)C(=O)C(CC(=O)NCc2ccco2)C1 (stereo unspecified) | 13.8
NNC(=O)c1cc2cc3ccccc3nc2s1 | 4.35
Cc1ccc(C(=O)NCCc2ccccc2)cc1S(=O)(=O)N1CCOCC1 | 1.5
CCN1CCN(C(=O)c2cc3cc4cc(OC)ccc4nc3s2)CC1 | 8.34

###

Reported inhibition is given for each of the following compounds.
target: Rac GTPase-activating protein 1 (Homo sapiens) (UniProt Q9H0H5); test: blockers of MgcRacGAP-driven Rac1 GTP hydrolysis – biochemical, ADP Hunter fluorescence, primary and confirmatory, confirmation (AID 624330); conditions: MgcRacGAP-stimulated Rac1 GTP hydrolysis, at 30 µM, hits give high values, GST-tagged Rac1 F28L mutant substrate;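 note: fluorescence reports GDP produced by GAP-driven GTP hydrolysis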
Out of some 340,000 compounds screened, about 2,100 (0.62%) were called active. A selection follows. Results with a measured potency or affinity are listed apart.

compound | inhibition / %
O=c1/c(=C/c2ccc([N+](=O)[O-])cc2)sc2n1CCCN=2 | 9.61
COc1cccc2c1C(=O)c1c(O)c3c(c(O)c1C2=O)CC(O)(C(C)=O)CC3OC1CC(O)C(O)C(C)O1 (centres undefined) | 11.6
CCCCC(=O)OCC(=O)C1(O)Cc2c(O)c3c(c(O)c2C(OC2CC(NC(=O)C(F)(F)F)C(O)C(C)O2)C1)C(=O)c1c(OC)cccc1C3=O (centres undefined) | 6.09
COc1cccc2c1C(=O)c1c(O)c3c(c(O)c1C2=O)C[C@](O)(C(C)=O)C[C@H]3O[C@@H]1C[C@@H](N)[C@@H](O)[C@@H](C)O1 | 21.3
CN(C)c1ccc(CNn2cnnc2SCC(=O)NC(C)(C)C)cc1 | 14.5
O=c1/c(=C\c2ccc(F)cc2)sc2n1CCCN=2 | -5.16
Cc1ccccc1COCCN1CCN(S(=O)(=O)c2ccccc2)CCC1=O | 12.5
C/C(=N\NC(=O)c1ccc(Cl)c(Cl)c1)c1cccc(NC(=O)C(C)C)c1 | 10
O=c1/c(=C\c2ccc3c(c2)OCO3)sc2n1CCCN=2 | 8.3
